Data origin: ChEMBL document CHEMBL4610112

biological target: UniProt P10635; experiment: Inhibition of human CYP2D6 at 10 uM; format: ADME
Sequence (P10635 whole entry): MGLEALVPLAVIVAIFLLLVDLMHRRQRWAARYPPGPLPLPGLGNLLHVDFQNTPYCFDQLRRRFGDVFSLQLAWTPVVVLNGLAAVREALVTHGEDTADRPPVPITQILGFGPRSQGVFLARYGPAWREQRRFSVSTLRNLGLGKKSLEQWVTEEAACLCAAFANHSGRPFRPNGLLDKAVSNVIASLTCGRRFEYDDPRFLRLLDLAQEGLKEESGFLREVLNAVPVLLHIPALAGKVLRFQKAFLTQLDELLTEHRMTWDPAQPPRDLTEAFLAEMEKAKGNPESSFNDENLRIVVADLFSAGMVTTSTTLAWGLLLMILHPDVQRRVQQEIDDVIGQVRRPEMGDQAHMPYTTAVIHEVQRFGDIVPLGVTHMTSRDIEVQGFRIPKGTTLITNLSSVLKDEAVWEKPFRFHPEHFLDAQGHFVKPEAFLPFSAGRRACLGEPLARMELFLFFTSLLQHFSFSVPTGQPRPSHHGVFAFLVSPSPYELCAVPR
MEASURED_PROPERTY: inhibition at 10 µM (%)
Write the number in % without appending the unit.

>>> numeric_value("CCS(=O)(=O)Nc1cc(-c2cn(C)c3c(=O)[nH]ccc23)cc2c1ccn2C(C)(c1ccccn1)c1ccccn1.Cl")
14.5

Kindly indicate its recorded inhibition at 10 µM. Item: `COc1ccc2c(c1)[C@]13CCCC[C@@H]1[C@H](C2)N(C)CC3`
94.4

---

target: Protein polybromo-1 (Homo sapiens); experiment: Binding affinity to human partial length PBRM1 bromodomain 2 (S178 to E291 residues) expressed in bacterial expression system by BROMOscan assay
Sequence (Q86U86 whole entry, the tested form may be a part): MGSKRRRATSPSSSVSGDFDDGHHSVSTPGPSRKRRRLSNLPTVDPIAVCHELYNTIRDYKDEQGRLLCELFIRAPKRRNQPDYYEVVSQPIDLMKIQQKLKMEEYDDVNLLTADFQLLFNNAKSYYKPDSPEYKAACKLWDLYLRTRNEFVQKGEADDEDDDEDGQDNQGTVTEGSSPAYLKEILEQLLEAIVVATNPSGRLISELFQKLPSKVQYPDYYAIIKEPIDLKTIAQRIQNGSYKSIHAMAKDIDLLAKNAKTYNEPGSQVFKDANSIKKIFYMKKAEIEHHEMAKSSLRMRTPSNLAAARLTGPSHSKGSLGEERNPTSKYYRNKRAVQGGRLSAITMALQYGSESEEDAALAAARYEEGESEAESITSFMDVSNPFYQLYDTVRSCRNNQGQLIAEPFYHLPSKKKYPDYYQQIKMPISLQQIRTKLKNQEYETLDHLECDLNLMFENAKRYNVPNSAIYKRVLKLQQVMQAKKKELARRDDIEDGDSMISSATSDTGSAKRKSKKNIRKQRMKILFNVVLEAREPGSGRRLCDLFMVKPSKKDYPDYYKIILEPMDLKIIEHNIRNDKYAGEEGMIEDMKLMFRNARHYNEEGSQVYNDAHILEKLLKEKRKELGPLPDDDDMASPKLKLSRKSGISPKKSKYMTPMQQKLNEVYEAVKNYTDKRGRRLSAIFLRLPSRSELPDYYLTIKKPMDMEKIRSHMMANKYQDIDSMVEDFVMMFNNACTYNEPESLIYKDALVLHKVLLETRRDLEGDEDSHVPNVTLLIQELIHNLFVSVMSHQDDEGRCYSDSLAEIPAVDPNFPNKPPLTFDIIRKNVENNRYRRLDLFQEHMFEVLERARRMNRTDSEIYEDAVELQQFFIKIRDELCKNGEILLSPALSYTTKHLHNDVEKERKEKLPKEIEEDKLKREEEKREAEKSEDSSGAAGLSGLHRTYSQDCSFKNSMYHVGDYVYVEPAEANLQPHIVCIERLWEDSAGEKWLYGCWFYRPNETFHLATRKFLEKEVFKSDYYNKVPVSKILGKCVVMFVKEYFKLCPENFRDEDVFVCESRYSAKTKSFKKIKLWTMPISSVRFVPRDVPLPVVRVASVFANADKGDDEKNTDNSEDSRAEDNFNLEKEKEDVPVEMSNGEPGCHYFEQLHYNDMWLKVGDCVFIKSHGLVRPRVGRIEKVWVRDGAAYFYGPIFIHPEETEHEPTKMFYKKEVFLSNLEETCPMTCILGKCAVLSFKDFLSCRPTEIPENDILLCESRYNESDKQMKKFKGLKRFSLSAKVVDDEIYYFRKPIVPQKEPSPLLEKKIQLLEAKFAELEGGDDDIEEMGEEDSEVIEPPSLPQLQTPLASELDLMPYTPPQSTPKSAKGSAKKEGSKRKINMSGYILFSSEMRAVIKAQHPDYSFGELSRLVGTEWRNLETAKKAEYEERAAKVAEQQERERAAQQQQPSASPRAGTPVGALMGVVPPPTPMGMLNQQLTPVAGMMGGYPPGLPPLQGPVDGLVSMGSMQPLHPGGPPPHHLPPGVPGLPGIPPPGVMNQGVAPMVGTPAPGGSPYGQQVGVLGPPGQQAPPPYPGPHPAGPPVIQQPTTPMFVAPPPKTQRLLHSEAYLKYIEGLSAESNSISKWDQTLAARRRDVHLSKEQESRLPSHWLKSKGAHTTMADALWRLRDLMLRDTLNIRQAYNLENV
pKd: −log10 of the molar value.
MEASURED_PROPERTY: pKd

Please supply the value of reported pKd for the item `CCS(=O)(=O)Nc1cc(-c2cn(C)c3c(=O)[nH]ccc23)cc2c1ccn2C(C)(c1ccccn1)c1ccccn1`
< 5.00

---

molecular target: ATPase family AAA domain-containing protein 2 (Homo sapiens); assay: Binding affinity to human partial length ATAD2A (Q981 to R1108 residues) expressed in bacterial expression system by BROMOscan assay
Sequence (Q6PL18 whole entry, the tested form may be a part): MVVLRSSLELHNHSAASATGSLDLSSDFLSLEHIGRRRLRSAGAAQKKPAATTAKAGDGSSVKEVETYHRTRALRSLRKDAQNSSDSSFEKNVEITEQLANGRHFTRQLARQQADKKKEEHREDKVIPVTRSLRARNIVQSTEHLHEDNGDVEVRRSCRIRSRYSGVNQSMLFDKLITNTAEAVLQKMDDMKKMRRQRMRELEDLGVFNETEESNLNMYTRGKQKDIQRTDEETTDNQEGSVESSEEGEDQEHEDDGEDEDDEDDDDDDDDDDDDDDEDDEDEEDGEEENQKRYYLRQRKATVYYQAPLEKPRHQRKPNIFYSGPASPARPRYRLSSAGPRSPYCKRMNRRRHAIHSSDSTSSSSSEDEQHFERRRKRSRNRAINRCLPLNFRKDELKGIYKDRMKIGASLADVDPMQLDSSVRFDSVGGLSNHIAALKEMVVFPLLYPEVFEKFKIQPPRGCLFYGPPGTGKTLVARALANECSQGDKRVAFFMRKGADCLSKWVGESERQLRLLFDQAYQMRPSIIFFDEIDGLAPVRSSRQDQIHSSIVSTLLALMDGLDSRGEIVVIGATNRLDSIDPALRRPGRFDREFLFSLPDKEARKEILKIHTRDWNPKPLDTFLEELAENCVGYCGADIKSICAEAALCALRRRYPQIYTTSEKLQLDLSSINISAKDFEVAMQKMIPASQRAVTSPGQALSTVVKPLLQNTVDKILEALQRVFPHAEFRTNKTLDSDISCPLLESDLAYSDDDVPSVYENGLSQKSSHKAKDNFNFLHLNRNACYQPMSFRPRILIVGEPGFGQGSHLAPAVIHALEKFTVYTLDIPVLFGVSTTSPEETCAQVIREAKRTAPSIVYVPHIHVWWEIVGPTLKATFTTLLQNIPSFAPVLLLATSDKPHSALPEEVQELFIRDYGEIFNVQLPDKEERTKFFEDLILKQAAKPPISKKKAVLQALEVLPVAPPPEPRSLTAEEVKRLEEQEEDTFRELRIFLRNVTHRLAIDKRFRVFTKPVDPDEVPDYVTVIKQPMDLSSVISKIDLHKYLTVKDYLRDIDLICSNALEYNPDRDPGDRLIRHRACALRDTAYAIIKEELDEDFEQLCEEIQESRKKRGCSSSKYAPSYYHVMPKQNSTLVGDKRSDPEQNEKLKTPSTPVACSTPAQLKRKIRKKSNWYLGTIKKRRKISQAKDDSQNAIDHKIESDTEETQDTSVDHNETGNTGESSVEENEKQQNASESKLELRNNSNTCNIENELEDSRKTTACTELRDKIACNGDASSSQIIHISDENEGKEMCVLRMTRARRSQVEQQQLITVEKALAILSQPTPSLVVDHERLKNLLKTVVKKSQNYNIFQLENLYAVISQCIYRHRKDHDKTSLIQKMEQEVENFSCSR
MEASURED_PROPERTY: Kd

Fill: Kd (ATPase family AAA domain-containing protein 2 (Homo sapiens)) for this compound `CCS(=O)(=O)Nc1cc(-c2cn(C)c3c(=O)[nH]ccc23)cc2c1ccn2C(C)(c1ccccn1)c1ccccn1`
> 10 µM

---

biological target: Nucleosome-remodeling factor subunit BPTF (Homo sapiens); test: Binding affinity to human partial length FALZ (S2791 to H2911 residues) expressed in bacterial expression system by BROMOscan assay
pKd: −log10 of the molar value.
MEASURED_PROPERTY: pKd

Note down pKd recorded for `CCS(=O)(=O)Nc1cc(-c2cn(C)c3c(=O)[nH]ccc23)cc2c1ccn2C(C)(c1ccccn1)c1ccccn1`
< 5.00

---

assay: Intrinsic clearance in human hepatocytes assessed per million cells; type: ADME, cell-based, Hepatocyte; settings: read-out: CLH
MEASURED_PROPERTY: hepatocyte CLint (µL/min/1e6 cells)
Write the number in µL/min/1e6 cells without appending the unit.

Indicate the recorded hepatocyte CLint value for this compound: `CCS(=O)(=O)Nc1cc(-c2cn(C)c3c(=O)[nH]ccc23)cc2c1ccn2C(C)(c1ccccn1)c1ccccn1.Cl`
6.86

---

target: CYP1A2 (Homo sapiens); experiment: Inhibition of human CYP1A2 at 10 uM; assay type: ADME
Sequence (P05177 whole entry): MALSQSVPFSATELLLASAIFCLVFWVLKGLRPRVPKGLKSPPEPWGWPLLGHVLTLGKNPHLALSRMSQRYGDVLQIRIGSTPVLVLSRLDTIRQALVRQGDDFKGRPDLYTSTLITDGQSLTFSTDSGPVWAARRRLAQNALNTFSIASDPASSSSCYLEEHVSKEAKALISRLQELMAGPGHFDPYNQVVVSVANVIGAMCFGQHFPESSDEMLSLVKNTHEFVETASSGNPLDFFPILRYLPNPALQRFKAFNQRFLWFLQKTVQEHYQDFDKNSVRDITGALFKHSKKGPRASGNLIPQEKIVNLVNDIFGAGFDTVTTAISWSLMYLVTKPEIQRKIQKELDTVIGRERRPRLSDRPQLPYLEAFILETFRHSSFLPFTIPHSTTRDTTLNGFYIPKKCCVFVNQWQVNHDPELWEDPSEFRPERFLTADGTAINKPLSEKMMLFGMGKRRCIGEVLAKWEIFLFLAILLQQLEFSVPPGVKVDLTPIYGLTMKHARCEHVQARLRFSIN
MEASURED_PROPERTY: inhibition at 10 µM

Identify measured inhibition at 10 µM corresponding to `CCS(=O)(=O)Nc1cc(-c2cn(C)c3c(=O)[nH]ccc23)cc2c1ccn2C(C)(c1ccccn1)c1ccccn1.Cl`
2.29%

---

target: UniProt:O15164; test: Binding affinity to human partial length TRIM24 phd bromodomain (P790 to P977 residues) expressed in bacterial expression system by BROMOscan assay
MEASURED_PROPERTY: Kd

Check the records and state Kd for `CCS(=O)(=O)Nc1cc(-c2cn(C)c3c(=O)[nH]ccc23)cc2c1ccn2C(C)(c1ccccn1)c1ccccn1`
> 10 µM

---

biological target: Histone acetyltransferase KAT2A (Homo sapiens, UniProt Q92830); test: Binding affinity to human partial length GCN5L2 (E726 to K837 residues) expressed in bacterial expression system by BROMOscan assay
Sequence (Q92830 whole entry, the tested form may be a part): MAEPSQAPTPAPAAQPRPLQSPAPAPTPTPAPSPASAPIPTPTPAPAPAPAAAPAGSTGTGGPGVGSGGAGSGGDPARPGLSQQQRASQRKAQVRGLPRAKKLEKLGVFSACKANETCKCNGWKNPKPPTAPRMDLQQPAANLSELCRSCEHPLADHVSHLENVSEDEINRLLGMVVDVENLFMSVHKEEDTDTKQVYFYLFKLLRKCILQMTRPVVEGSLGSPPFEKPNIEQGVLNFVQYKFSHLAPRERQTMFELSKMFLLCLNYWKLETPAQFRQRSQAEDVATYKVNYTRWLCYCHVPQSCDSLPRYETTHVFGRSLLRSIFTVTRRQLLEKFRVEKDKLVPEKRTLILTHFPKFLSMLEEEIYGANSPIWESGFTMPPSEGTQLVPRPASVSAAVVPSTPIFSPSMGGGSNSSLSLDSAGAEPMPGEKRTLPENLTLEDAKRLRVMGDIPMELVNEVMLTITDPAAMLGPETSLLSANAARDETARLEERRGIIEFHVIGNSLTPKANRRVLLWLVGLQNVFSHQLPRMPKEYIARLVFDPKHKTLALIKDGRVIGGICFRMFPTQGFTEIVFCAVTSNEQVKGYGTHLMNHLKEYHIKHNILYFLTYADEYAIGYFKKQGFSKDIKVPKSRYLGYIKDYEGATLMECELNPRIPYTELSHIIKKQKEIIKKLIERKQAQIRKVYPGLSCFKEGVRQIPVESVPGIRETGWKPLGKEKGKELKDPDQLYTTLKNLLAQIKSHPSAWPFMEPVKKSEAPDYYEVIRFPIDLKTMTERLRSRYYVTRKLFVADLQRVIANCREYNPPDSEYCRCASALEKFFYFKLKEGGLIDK
MEASURED_PROPERTY: Kd

Report Kd for `CCS(=O)(=O)Nc1cc(-c2cn(C)c3c(=O)[nH]ccc23)cc2c1ccn2C(C)(c1ccccn1)c1ccccn1`
> 10 µM
